Where these numbers come from: patent EP4792811A1

Readings of pEC50 for the listed compounds
target: hS1P4-R-79C (Homo sapiens, UniProt O95977, R79C); experiment: Tango β-arrestin recruitment assay, Tango-hS1P4-R-79C-CHO; settings: final concentration 45 µM, 9 serial dilutions at 5-fold intervals; 20 h drug treatment; luciferase readout
Sequence (O95977 whole entry R79C): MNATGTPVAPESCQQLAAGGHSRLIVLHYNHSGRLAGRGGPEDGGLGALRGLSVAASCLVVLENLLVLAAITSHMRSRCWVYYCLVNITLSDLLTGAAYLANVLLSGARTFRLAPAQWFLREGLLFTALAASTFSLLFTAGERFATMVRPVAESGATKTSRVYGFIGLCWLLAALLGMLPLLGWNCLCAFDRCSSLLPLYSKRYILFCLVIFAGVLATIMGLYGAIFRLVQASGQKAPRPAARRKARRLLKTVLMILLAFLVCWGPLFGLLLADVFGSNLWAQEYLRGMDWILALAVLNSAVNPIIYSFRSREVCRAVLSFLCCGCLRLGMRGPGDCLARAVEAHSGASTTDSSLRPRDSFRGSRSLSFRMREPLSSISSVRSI
pEC50: −log10 of the molar value.
experimental.endpoint: pEC50

| compound | experimental.endpoint | recorded.number |
| --- | --- | --- |
| C/C(=N\OCc1ccc(C2CCCCC2)c(C(F)(F)F)c1)c1ccc(CN2CC(C(=O)O)C2)c(C)c1 [Compound 18] | pEC50 | 7.20 |
| C/C(=N\OCc1ccc(C2CCCCC2)c(C(F)(F)F)c1)c1ccc(CNCCC(=O)O)cc1 [Compound 10] | pEC50 | 6.80 |
| CCc1cc(/C(C)=N/OCc2ccc(C3CCCC3)c(C(F)(F)F)c2)ccc1CN1CC(C(=O)O)C1 [Compound 17] | pEC50 | 7.02 |
| CCc1cc(/C(C)=N/OCc2ccc(-c3ccccc3)c(C)c2)ccc1CNCCCC(=O)O [Compound 32] | pEC50 | 6.96 |
| CCc1cc(/C(C)=N/OCc2ccc(C3CCCCC3)c(C(F)(F)F)c2)ccc1CN1CC(C(=O)O)C1 [BAF312, reference compound] | pEC50 | 6.80 |
| C/C(=N\OCc1ccc(C2CCCCC2)c(C(F)(F)F)c1)c1ccc(CN2CC(C(=O)O)C2)c(C(F)(F)F)c1 [Compound 19] | pEC50 | 6.92 |
